- methodNotes: Therapeutic index, ratio of TC50 human HeLa cells expressing CD4-LTR to EC50 for HIV1 entry inhibition in human HeLa cells expressing CD4-LTR
- Format: cell-based
- testContext: read-out: TI
measuredQuantity: selectivity ratio

Consider the reported selectivity ratio for these compounds:
Dear colleague, I am looking for the recorded selectivity ratio of the following compound: CCc1c(C(=O)c2cc(C)cc(C)c2)n(CC2CCCC2)c(=O)[nH]c1=O
996

Dear colleague, I am looking for the recorded selectivity ratio of the following compound: Cc1cc(C)cc(Sc2c(C(C)C)c(=O)[nH]c(=O)n2CC2CCC2)c1
37

Dear colleague, I am looking for the recorded selectivity ratio of the following compound: Cc1cc(C)cc(Oc2c(C(C)C)c(=O)[nH]c(=O)n2CCC2C=CCC2)c1 (stereo not given)
1650

Dear colleague, I am looking for the recorded selectivity ratio of the following compound: Cc1cc(C)cc(Oc2c(C(C)C)c(=O)[nH]c(=O)n2CCC2CCCC2)c1
675

With those in mind, consider the next compound.
Dear colleague, I am looking for the recorded selectivity ratio of the following compound: Cc1cc(C)cc(Sc2c(C(C)C)c(=O)[nH]c(=O)n2CCC2CC=CC2)c1
173

Reference for the values: ChEMBL document CHEMBL1152465
